These entries and their values trace back to the supplement of paper PMC10126150.

system: ATP; experiment: switch fluorescence ratio, 500 uM ATP over buffer (Cy3 cluster intensity, sum of 5 cycles each) (fold (ratio)); higher = stronger signal-on switching upon ATP binding; sequences stand for … in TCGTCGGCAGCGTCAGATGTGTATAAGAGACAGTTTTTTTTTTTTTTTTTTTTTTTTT…TC; conditions: aptamer strand: ATP DNA aptamer (quencher-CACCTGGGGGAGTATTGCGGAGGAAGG + anchor), 100 nM annealed; ATP concentration: 500 uM;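 note: ATP exposure 15 min at 22 °C before imaging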
Decide by switch fluorescence ratio: equal to or exceeding 1 means true (1), less means false (0).

* AGCTTTATGC | false (0)
* CAGGGTTGGC | true (1)
* ATTGCCCTTA | true (1)
* AAATCACGTA | true (1)
* TTGGTGACGT | true (1)
* CCGATAGATG | true (1)
* AAAAAACGTG | true (1)
* CATCGCGGTT | true (1)
* TTTTACTCCG | true (1)
* TTAATGGAGG | true (1)
* ATGCAGGTGT | true (1)
* CAAAGTTAGG | false (0)
* GTGATTACTG | false (0)
* GCAAAGAGGG | true (1)
* GATTTTTATA | false (0)
